assay: ST_JUDE: Cytotoxicity using luciferase to measure ATP as an indicator of the viability of human epithelial embryonic kidney cells (HEK293); assay type: toxicity, cell-based
Assay readout: EC50

Oc1ccc(Br)cc1CN1CCN(C2CC3CCC2C3)CC1 (stereo not given)	> 38.2 µM
CCCO/C(O)=C1\C(C)=NC2=C(C(=O)CC(c3ccc(OC)c(OC)c3)C2)C1c1ccccc1OC (stereo not given)	> 47 µM
OC(CNC1CCCC1)Cn1c2ccccc2c2ccccc21 (stereo not given)	31.5 µM
CCO/C(O)=C1\C(C)=NC2=C(C(=O)CC(c3ccc(OC)c(OC)c3)C2)C1c1cccc(C)c1 (stereo not given)	> 40.6 µM

[ask] State its EC50 for this compound: CCCO/C(O)=C1\C(C)=NC2=C(C(=O)CC(c3ccc(OC)c(OC)c3)C2)C1c1ccccc1Cl (stereo not given)
[reply] > 39.1 µM

----------
system: Plasmodium falciparum; test: ST_JUDE: Plasmodium falciparum K1 EC50 (uM) as measured by SYBR green dye; type: functional, organism-based
Assay readout: pEC50
One number for each entry, as −log10 of the molar value.

Recorded pEC50, per entry:
CCO/C(O)=C1\C(CC)=NC2=C(C(=O)CC(C)(C)C2)C1c1ccc(Cl)cc1Cl (stereo not given)	5.92
CC(C)C(=O)N1CCOc2c(cc(-c3csc4ccccc34)cc2OCCc2ccccn2)C1	5.35

Pending compound:
[ask] GET pEC50 where system = Plasmodium falciparum and item = COc1ccc(C(O)(CCC(C)C)C(CN2CCOCC2)c2ccccc2)cc1 (stereo not given)
[reply] 5.49

----------
tested on: Plasmodium falciparum; assay: ST_JUDE: Plasmodium falciparum 3D7 EC50 (uM) as measured by SYBR green dye; type: functional, organism-based
Assay readout: log10(EC50) (log10 of the value in µM)
Quick note: numbers are log10 of EC50, with µM as the unit.

Recorded log10(EC50), per entry:
CCOC(=O)c1c(N)n(-c2ccc(F)cc2)c2nc3ccccc3nc12	0.39
Cc1cccc(CN2CCC(CNC(=S)Nc3ccc4nc(N5CCN(C)CC5)cc(C)c4c3)CC2)c1	-0.40
CCc1ccc(S(=O)(=O)Nc2ccc(Nc3nc(C)cc(Nc4ccc(OC)cc4)n3)cc2)cc1	-0.24
Cc1cccnc1Nc1nc(-c2ccccn2)cs1	0.26
COc1ccc(S(=O)(=O)/N=C2/C=C(Sc3nc[nH]n3)C(=O)c3ccccc32)cc1	0.29
COc1cccc(CNC(=O)C2c3ccccc3C(=O)N(CC(C)C)C2c2cccs2)c1 (centres undefined)	0.72
CCCOc1ccc(C(NC(=O)CCl)NC(=O)CCl)cc1OC	0.60
Cn1c(-c2ccccc2[N+](=O)[O-])[n+](C)c2ccccc21	0.87

[ask] GET log10(EC50) where system = Plasmodium falciparum and item = CC(Cc1ccccc1)NCCCCCCCCCNC(C)Cc1ccccc1 (centres undefined)
[reply] 0.58

----------
assay: ST_JUDE: Cytotoxicity using luciferase to measure ATP as an indicator of the viability of human Burkitt''s lymphoma lymphoblast cells (Raji); type: toxicity, cell-based
Assay readout: EC50

CCOc1cc2c(cc1OCC)C(c1cc(C)c(O)c(C)c1)NCC2 (stereo not given)	> 52 µM
CCCO/C(O)=C1\C(C)=NC2=C(C(=O)CC(c3ccc(OC)c(OC)c3)C2)C1c1ccc(F)cc1 (stereo not given)	> 36.3 µM
OC(CNC1CCCC1)Cn1c2ccccc2c2ccccc21 (stereo not given)	> 40.6 µM
CCN(CC)CCN1C(=O)c2ccccc2NC1c1ccc(Cl)cc1 (stereo not given)	> 42.9 µM

Pending compound:
[ask] State its EC50 for this compound: CCCO/C(O)=C1\C(C)=NC2=C(C(=O)CC(c3ccc(OC)c(OC)c3)C2)C1c1ccccc1Cl (stereo not given)
[reply] > 39.1 µM
